Data credit: patent US5245051A

# TARGET SYSTEM: dopamine D2 receptor (Rattus norvegicus, UniProt P61169)
# Construct: homogenized rat striatal brain tissue; from tissue; host or cells: rat striatal brain tissue homogenate
# Sequence (P61169 whole entry): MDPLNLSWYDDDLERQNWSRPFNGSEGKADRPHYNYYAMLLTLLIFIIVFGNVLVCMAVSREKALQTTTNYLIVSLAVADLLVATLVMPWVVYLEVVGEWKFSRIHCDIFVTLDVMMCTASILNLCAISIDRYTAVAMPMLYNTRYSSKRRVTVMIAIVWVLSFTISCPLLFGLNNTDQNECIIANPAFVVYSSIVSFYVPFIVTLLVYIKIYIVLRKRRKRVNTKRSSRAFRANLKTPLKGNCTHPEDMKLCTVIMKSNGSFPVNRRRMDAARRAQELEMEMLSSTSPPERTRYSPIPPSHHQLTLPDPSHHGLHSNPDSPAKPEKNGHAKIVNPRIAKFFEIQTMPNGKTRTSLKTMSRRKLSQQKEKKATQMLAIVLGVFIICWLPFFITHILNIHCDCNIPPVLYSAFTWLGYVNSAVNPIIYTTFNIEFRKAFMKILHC
# METHOD DESCRIPTION: Affinity for dopamine D2 receptor (3H-quinpirole, homogenized rat striatal brain tissue)
# Type: binding
# Description: Affinity for the dopamine D2 receptor was established by a modification of the standard experimental test procedure of Seemen and Schaus, European Journal of Pharmacology 203: 105-109, 1991, wherein homogenized rat striatal brain tissue is incubated with ^3 H-quinpirole and various concentrations of test compound, filtered and washed and counted in a Betaplate scintillation counter.
MEASURED METRIC: inhibition at 0.1 µM (%)

Use the examples below as a reference point.
O=c1ccoc2ccc(OCCCNCC3COc4cc5c(cc4O3)OCO5)cc12 (stereo not drawn) : 39
c1cc2c(cc1OCCCNCC1COc3cc4c(cc3O1)OCO4)OCCC2 (stereo not drawn) : 24
O=C1CCOc2cc(OCCCNCC3COc4cc5c(cc4O3)OCO5)ccc21 (stereo not drawn) : 24
COc1ccc2c(c1)OC(CNCCCOc1ccc3c(=O)ccoc3c1)CO2 (stereo not drawn) : 49

[1] O=C1COc2cc(OCCCNCC3COc4cc5c(cc4O3)OCO5)ccc21 (stereo not drawn)
[2] c1cc2c(cc1OCCCNCC1COc3cc4c(cc3O1)OCO4)CCCO2 (stereo not drawn)
Which record shows the lower inhibition at 0.1 µM: the first, 1 , or the second, 2 ? Answer = label.
2
(2: 23%, 1: 43%)
